B1: Osa-1-4 twister ribozyme (parent)
chain: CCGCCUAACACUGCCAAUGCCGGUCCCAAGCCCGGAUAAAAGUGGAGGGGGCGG

- Variants of: B1
- Protocol notes: self-cleavage, relative activity (ratio to wild type); higher = more cleavage; co-transcriptional
For each of the variants below, state its self-cleavage.
Give the value as a plain number.

input: Field request: self-cleavage | item: C11U G45A
output: 0.09

input: Consider next the variant C25G G22A in the same way.
output: 0.09

input: Also, C14U G34A please.
output: 0.15

input: Would you kindly repeat that for A29U C20G ?
output: 0.03

input: Same lookup for A39U C20G , please.
output: 0.09

input: What about this variant? A7U G44C
output: 0.06
